These measurements were taken from ChEMBL document CHEMBL3351589.

# EXPERIMENT: Acute toxicity in Swiss mouse assessed as mortality rate at 100 mg/kg, iv after 14 days relative to control
# Format: organism-based
# Set-up: dose 100 mg/kg, route intravenous
# MEASUREMENT_PARAMETERS: in vivo
RESULT_TYPE: mortality at 336 h (%)
Give the quantity in %, number only.

Return the recorded mortality at 336 h value; entry: COc1ccc(/C=C/C(=O)c2ccc3c(c2O)C=CC(C)(C)O3)cc1O
0

====

# EXPERIMENT: Acute toxicity in Swiss mouse assessed as mortality rate at 300 mg/kg, iv after 14 days relative to control
# Type: organism-based
# Parameters: dose 300 mg/kg, route intravenous
# MEASUREMENT_PARAMETERS: in vivo
RESULT_TYPE: mortality at 336 h (%)
Give the quantity in %, number only.

Return the recorded mortality at 336 h value; entry: COc1ccc(/C=C/C(=O)c2ccc3c(c2O)C=CC(C)(C)O3)cc1O
16.7

====

# EXPERIMENT: Acute toxicity in Swiss mouse assessed as mortality rate at 200 mg/kg, iv after 14 days relative to control
# Assay type: organism-based
# Set-up: dose 200 mg/kg, route intravenous
# MEASUREMENT_PARAMETERS: in vivo
RESULT_TYPE: mortality at 336 h (%)
Give the quantity in %, number only.

Return the recorded mortality at 336 h value; entry: COc1ccc(/C=C/C(=O)c2ccc3c(c2O)C=CC(C)(C)O3)cc1O
0
